biological target: LNX1_2, Q8TBB1; assay: holdup assay; set-up: key: below the threshold = too weak to quantify, mostly under pKd 3.1 to 4; conditions: plain residues with an end cap or a label only (N-terminal biotin on a linker: ado-ado)
Sequence (Q8TBB1 371-470): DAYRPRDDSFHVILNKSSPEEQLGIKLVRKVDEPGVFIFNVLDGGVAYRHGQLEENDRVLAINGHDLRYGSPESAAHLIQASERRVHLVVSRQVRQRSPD

Binder	pKd
QKNKDKEYYV [NRXN3_rs746444206, Q9Y4C0]	4
TETASVCTKV [SLC23A1, Q9UHI7]	below the threshold
FVHPILQSAV [PRKCA, P17252]	below the threshold
GFGEERESIL [KIDINS220, Q9ULH0]	below the threshold
